Source listed as ChEMBL document CHEMBL3507680.

- ASSAY PROCEDURE: Human HepG2 cell viability assay in 384 well format
- Type: toxicity, cell-based
- Set-up: dose 125 nL, time 70.5 hour; concentration not given beside the values
- CONDITION DETAILS: HepG2 cells, read-out: Inhibition
I'd be grateful if you could share measured cytotoxicity at 70.5 h for these entries.
Give bare numbers, in %.

Below are worked cases with known answers.
CC(C)Nc1nc2c(s1)C(=O)CN(CC1CC1)C2 | 2.03
COC[C@]1(O)CCN(Cc2ccc(N(C)C)nc2)CC1(C)C | -17.9
Cc1nnnn1-c1cc(NCc2cccc(C#N)c2)ccc1F | -24.4
Cc1cccc(CN2C[C@@H](NC(=O)C3CC3)[C@H]3OCCC[C@H]32)n1 | 4.63
CCCc1noc(CNc2cc(C[S+](C)[O-])ccc2Cl)n1 (stereo unspecified) | -3.29
CCOCc1ncn2c1CN(S(=O)(=O)c1cccs1)CC2 | -0.803
Cc1nc(COC[C@]23COC[C@H]2CN(Cc2ccoc2)C3)cs1 | -9.47
COCCCN1Cc2cccc(NC(=O)c3cc(F)ccc3F)c2C1 | -9.4
O=C1NCCCCC1NC(=O)N1CCc2ccccc21 (stereo unspecified) | -14.4
CC(NC(=O)N(C)CCOc1ccccc1F)c1nncn1C (stereo unspecified) | -4.64

Query string: Which cytotoxicity at 70.5 h reading was recorded for the molecule CCN(Cc1cc(F)c(OC)c(Cl)c1)Cc1noc(CC(C)C)n1 ?
Result string: -10.5

---

- ASSAY PROCEDURE: Human HepG2 cell viability assay in 384 well format
- Format: toxicity, cell-based
- Parameters: dose 125 nL, time 70.5 hour; concentration not given beside the values
- CONDITION DETAILS: HepG2 cells, read-out: Inhibition
PROPERTY NAME: cytotoxicity at 70.5 h
Mention the unit after the number when you answer.

Below are worked cases with known answers.
COc1ccc(CNc2nc(C3CC3)nc3c(C)nn(C)c23)cc1 | -0.926%
CCN(C)C[C@@H]1CN(C(=O)NC2CCCCC2)C[C@@H]1CO | -10.1%

// for each compound in input: emit cytotoxicity at 70.5 h
1. O=C(Cc1csc(-c2ccsc2)n1)N1CCN(c2cnccn2)CC1
2. CN(C(=O)c1cc(F)ccc1F)[C@@H]1CC[C@@H](O)[C@@H]1O

Result string:
-10.1%
-2.95%

// for each compound in input: emit cytotoxicity at 70.5 h
1. Cc1ccc(CS(=O)(=O)N2Cc3c(CN(C)C)nn(C)c3C2)cc1
2. c1cncc(CN2CCCC3(COCCN(c4nccs4)C3)C2)c1 (stereo unspecified)

Result string:
["-4.61%", "-5.78%"]

---

I'd be grateful if you could share measured cytotoxicity at 70.5 h for these entries.
- ASSAY PROCEDURE: Human HepG2 cell viability assay in 384 well format
- Format: toxicity, cell-based
- Design: dose 125 nL, time 70.5 hour; concentration not given beside the values
- CONDITION DETAILS: HepG2 cells, read-out: Inhibition
One number for each entry, in %.

// for each molecule in input: emit cytotoxicity at 70.5 h
1. CN(Cc1cccnc1)C(=O)NC1CCN(Cc2ccccn2)CC1
2. CC1CCC2(CC1)NC(=O)c1cc(Br)ccc1-n1nnnc12 (centres undefined)
3. O=C(NCC(=O)N1CCCCC1)c1ccc(Cl)cc1I
4. Cc1cc(NC(=O)N2CCOCC2)nn1-c1cccc(Cl)c1

Result string:
[0.886, -4.82, -10.6, -2.25]

// for each molecule in input: emit cytotoxicity at 70.5 h
1. O=c1cc(Cn2ccnc2)nc2n1CCCN(CC1CCOCC1)C2
2. COc1cccc2cc(CNC(=O)N3CCCC(O)C3)oc12 (centres undefined)
3. O=c1[nH]cc(N2CCCCCC2)c(=O)[nH]1
4. Cn1ccnc1CCNC(=O)C1CCCN(Cc2cccc(F)c2)C1 (centres undefined)

Result string:
[-19.5, 46.8, 9.28, -7.53]

// for each molecule in input: emit cytotoxicity at 70.5 h
1. O=C(Nc1ccc(Br)cc1F)c1ccc(N2CCCCC2)nn1
2. NC(=O)CCC1CCCN(c2ccc3ccc(F)cc3n2)C1 (centres undefined)
3. Cc1nonc1OCCNC(=O)CCCc1ccc(Cl)cc1

Result string:
[-3.25, -3.15, -5.01]

// for each molecule in input: emit cytotoxicity at 70.5 h
1. O=C(Nc1cccnc1)[C@H]1CN(Cc2ccccn2)C[C@H]2OCC[C@@H]12
2. CS(=O)(=O)N1CCO[C@@H]2CN(C(=O)Cc3cccs3)CC[C@@H]2C1
3. COCCN(C)C(=O)Nc1ccn(-c2cccc(C(F)(F)F)c2)n1
4. Cn1c(NC(=O)CCS(=O)(=O)C2CCCC2)nc2cc(Cl)ccc21
5. Cc1cccc2c1ccn2CC(=O)O
6. CCc1cc(N(C)Cc2c(C)nn(C)c2C)n2nccc2n1

Result string:
1: -7.69; 2: -9.17; 3: -2.62; 4: -9.03; 5: 6.19; 6: -2.89

// for each molecule in input: emit cytotoxicity at 70.5 h
1. COC(=O)c1ccc(N(C)C2CCC2)nn1
2. O=C(Cn1cccnc1=O)NCC1Cc2ccccc2O1 (centres undefined)
3. CN1CCCN(S(=O)(=O)c2cnn(C)c2)c2cc(Cl)ccc21
4. COc1ccc(C)cc1C(=O)NC1(C#N)CCOCC1
5. O=C1COC[C@H]([C@H](O)c2ccc(NC(=O)c3cccnc3)cc2)N1
6. CC(=O)NCC(=O)N1CCc2[nH]c(-c3ccccc3)nc2C1

Result string:
[-5.28, -9.82, -3.72, -2.79, -5.64, -1.22]

Query string: Which cytotoxicity at 70.5 h reading was recorded for the molecule CC(C(N)=O)N(C)CCCc1cc(-c2ccccc2)no1 (centres undefined) ?
Result string: -2.88

---

- ASSAY PROCEDURE: Human HepG2 cell viability assay in 384 well format
- Type: toxicity, cell-based
- Design: dose 125 nL, time 70.5 hour; concentration not given beside the values
- CONDITION DETAILS: HepG2 cells, read-out: Inhibition
PROPERTY NAME: cytotoxicity at 70.5 h (%)
Numbers only, in %.

CN(C)CCNC(=O)c1sccc1N(C)S(=O)(=O)c1ccc(Cl)cc1 | -17.4
CN1CCN(C(=O)C2CCCc3[nH]ncc32)CC1 (centres undefined) | -1.9
O=C(CCNC(=O)c1ccoc1)NCc1ccccc1F | -11
COc1ccc(CC(=O)N2CCCC(c3cc(C)[nH]n3)C2)cc1 (centres undefined) | -3.16
CC(C)Cc1noc(CN2CCOC(Cn3cncn3)C2)n1 (centres undefined) | -5.1
O=c1cc(Cn2ccnc2)nc2n1CCCN(Cc1ccncc1)C2 | -21.3

// for each molecule in input: emit cytotoxicity at 70.5 h
1. Cc1ccccc1N1CCCN(C(=O)c2nn(C)cc2Cl)CC1
2. Cn1ccnc1CN1CCCN(C(=O)COCC2CC2)CC1
3. CC(=O)NC(C)C(=O)NCc1ccc(N2CCNC(=O)C2)cc1 (centres undefined)
4. Cc1cccc(CNC(=O)CC2CCN(S(C)(=O)=O)CC2)n1
5. OCC(O)CSCc1cn(-c2ccc(F)c(Cl)c2)nn1 (centres undefined)
6. Cc1cccc(CN(Cn2nc(C)c3c(C)onc3c2=O)C2CC2)c1
7. Cn1nnnc1SCCNC(=O)C1CCN(C(=O)C2CCCC2)CC1

Result string:
[27.7, -3.74, -15.7, -4.65, -7.46, -13.7, -5.48]

---

- ASSAY PROCEDURE: Human HepG2 cell viability assay in 384 well format
- Assay type: toxicity, cell-based
- Parameters: dose 125 nL, time 70.5 hour; concentration not given beside the values
- CONDITION DETAILS: HepG2 cells, read-out: Inhibition
PROPERTY NAME: cytotoxicity at 70.5 h (%)
Give bare numbers, in %.

Below are worked cases with known answers.
CC(C(=O)N1CCN(C)CC1)n1cc(Br)cn1 (stereo unspecified) | -1.37
O=C(NC1CC1)c1cc(C2CCCN(Cc3ccccn3)C2)no1 (stereo unspecified) | -13.3
Cc1cc(C(=O)N2CCOC(c3nc(C(C)C)n[nH]3)C2)no1 (stereo unspecified) | -11.9
CN(Cc1cnn(C)c1)C(=O)NCc1ccc2c(c1)OCCO2 | 0.47
CCNC(=O)NC[C@@H]1C=C(C)[C@H](CC(=O)NCCN(C)C)C[C@H]1C(C)C | -0.736

Next up:
Query string: Which cytotoxicity at 70.5 h reading was recorded for the molecule Cc1cnn(CCNCc2c(C)nn(CCO)c2C)c1 ?
Result string: 2.83

---

- ASSAY PROCEDURE: Human HepG2 cell viability assay in 384 well format
- Assay type: toxicity, cell-based
- Parameters: dose 125 nL, time 70.5 hour; concentration not given beside the values
- CONDITION DETAILS: HepG2 cells, read-out: Inhibition
I'd be grateful if you could share measured cytotoxicity at 70.5 h for these entries.
Answers are plain numbers, in %.

COc1cc(C(=O)NS(=O)(=O)c2cncc(Br)c2)ccc1C | -19
Cc1ccc(CN(CCCN(C)C)Cc2cnc(C)n2C)o1 | 6.53
CCc1ccc2c(c1)C(CCNC(=O)c1sccc1C)C(=O)N2 (stereo unspecified) | -3.5
Cn1ccc(CS(=O)(=O)Cc2ccccc2)cc1=O | -12.9
CSCCCN1C[C@H](NC(=O)c2ccc(CO)cc2)[C@@H](C2CC2)C1 | -9.41

// for each molecule in input: emit cytotoxicity at 70.5 h
1. Cc1noc(C)c1CN1C[C@@H]2COC[C@@H](CC(=O)N3CCCCO3)[C@@H]2C1
2. O=C1CNc2ncnc(Nc3cnn(Cc4cccc(F)c4)c3)c2N1
3. Cn1ccc(C(=O)NCc2ccc(N3CCCCCC3)nc2)cc1=O
4. O=C(COc1ccccc1)NCC1CCN(Cc2ccsc2)CC1
5. c1ccc(-c2cccc(N3CCC(NCCc4cscn4)CC3)c2)cc1
6. O=C(C1CC1)N1CCC2(COCc3cnc(NCc4ccco4)nc32)C1 (stereo unspecified)

Result string:
1: -6.43; 2: -16.6; 3: -12.5; 4: -4.27; 5: -7.94; 6: -2.45
